Target: HLA-A*69:01
Test: IEDB peptide-MHC binding, purified MHC/direct/fluorescence; filed as Kd, often an IC50 or EC50 that approximates it; bounds were set here for any values at or beyond the usual limits of such assays
Settings: source organism: Pseudomonas aeruginosa
pKd: −log10 of the molar value.

{"sequence input": "LPQTRWQAV", "study system": "HLA-A*69:01", "pKd": "≤ 4.70"}

---

Target: HLA-B*15:09
Test: IEDB peptide-MHC binding, purified MHC/direct/fluorescence; filed as Kd, often an IC50 or EC50 that approximates it; bounds were set here for any values at or beyond the usual limits of such assays
Settings: source organism: Influenza A virus(A/swine/Shandong/fZC/2003(H9N2))
pKd: −log10 of the molar value.

{"sequence input": "GTEKLTITY", "pKd": "≤ 4.70"}
